test: SGF digest of 168 nutritive polypeptide library, intact protein by LC-MS/MS; format: in vitro ADME; details: 168 nutritive polypeptide library SGF digest, LC-MS/MS spectral counts
Entries and their % Intact Protein at 10 min values follow.
Reply numerically in %, unit not repeated.

# MOLECULE, OBSERVATION_TYPE, VALUE_REPORTED
measured = [
    ("SEQID-00612: protein of the 168 nutritive polypeptide library (protein, listed as Oryza sativa, source: /note=\"subsp. japonica\", protein of the 168 nutritive polypeptide library) MICLRAAFPLTSSPLRRLALKPSSSRAAAAAMSSAIAAPVEHIVLIKVRPEAASSGAAAAMVSSLQALSTAVPGLSYIHVGPVLRLRSPAAEALGPTHVLHSRYATKPDLAAYAAHPAHVAAVQGHVLPNALDSTAIDWVNAALVPSPVNPGSAVRLSLAKLKEGVEAHQLAEKLAAATAAAGEAKGAKVSFGENFSPARAKGYQFGMVAVFDSVEGLDAVDGDGKVEAAKAIVRPLLDDVLELEFVVGPAAAEAPAPANL", "% Intact Protein at 10 min", 0),
]

What value of % Intact Protein at 10 min has been reported for the following molecule? SEQID-00581: protein of the 168 nutritive polypeptide library (protein, Arthrospira platensis NIES-39, protein of the 168 nutritive polypeptide library) MPKRQRKLAPPRGYKMHVKKGDTVQVIAGRDKGKVGEVISTLPKLSKVVVRDVNVRTKHVKPQQEGEGGRIVNFEAPIHSSNVMLYSTKEKVASRVSYTFTEDGRKVRMLKKTGEVID
33.3

Value source: patent US20160228506A1
